Test system: c-Src;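 further: 11-residue human phosphosite peptides and single-mutation variants displayed on the E. coli surface, counted by deep sequencing, each peptide's frequency after selection divided by its frequency in the unselected input library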;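 further: frequency after pTyr selection over input frequency; kinase dosed for 20-30% of maximal phosphorylation in three min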
Assay: phosphorylation enrichment, bacterial display (enrichment ratio); higher = better substrate or ligand; peptides without Tyr show the background
METRIC: phosphorylation enrichment
Please give only the number in your answer, with no unit.

Worked examples follow.
YETDYYQKGGK [INSR_Y1190_R1191Q] | 0.459
FTGDIYSSSNL [LZTR1_Y141_N143S_YF] | 4.35
REDIFYTSKLW [AKR1C2_Y81] | 0.438
VVQGLYKSMPK [KBTBD2_Y250] | 0.403
RFLERYIFNRQ [HLA-DPB1_Y57_E62Q_YF] | 0.893

Ask: Consider the sequence shown here: DLRGIYQKLVI What is its recorded phosphorylation enrichment?
Reply: 5.56

Ask: Consider the sequence shown here: SERNNYSRVAN [CWC22_Y797] What is its recorded phosphorylation enrichment?
Reply: 0.356
